The reader will find Kd measurements below, all made with SARS-CoV-2 S-RBD (Severe acute respiratory syndrome coronavirus 2).

O=C(N/N=C/c1cc([N+](=O)[O-])ccc1Cl)c1cc(O)cc(O)c1 [DC-RA016]; 85.1 µM

Would you kindly look at the next entry?
Kd for CCOc1ccc(N(CC(=O)Nc2ccccc2C(=O)NCc2ccco2)S(=O)(=O)c2ccc(OC)c(OC)c2)cc1 [DC-RA106] is > 100 µM

----------
Target: SARS-CoV-2 S-RBD (Severe acute respiratory syndrome coronavirus 2, UniProt P0DTC2)
Test: SPR binding assay, immobilized S-RBD (BIAcore T200)
Conditions: up to 100,000 nM analyte
measure: Binding to SARS-CoV-2 S-RBD by SPR (in words)

CCOc1ccc(N(CC(=O)Nc2ccccc2C(=O)NCc2ccco2)S(=O)(=O)c2ccc(OC)c(OC)c2)cc1; showed binding
O=C(N/N=C/c1cc([N+](=O)[O-])ccc1Cl)c1cc(O)cc(O)c1; showed binding

The measured values listed here are drawn from paper PMC8504695.
